Reference source: a melting point compilation (Tetko et al.; mined from patent text by program, amines drawn as free bases though some values may be those of a salt)

PROPERTY: melting point

Examples from the recorded data:
Looking for the measured melting point of CCCCOCCOc1ccc(-c2ccc(N3CCCC(C)C3)c(C=CC(=O)O)c2)cc1 (stereo not given) , can you help?
125 to 127 °C

Looking for the measured melting point of COc1ccc(-c2cccc(OC3SCC(O)C(O)C3O)c2)cn1 (stereo not given) , can you help?
174 °C

Looking for the measured melting point of CCCCN(Cc1ccc(-c2ccccc2-c2nnn[nH]2)cc1)c1ncccc1CNC(C)=O , can you help?
108 to 110 °C

Looking for the measured melting point of Nc1ncccc1-c1nc2cc(C3CCCC3)cnc2n1-c1ccc(CNC(=O)c2ccccc2)cc1 , can you help?
210 to 211 °C

Looking for the measured melting point of Cc1ccc(CNC(=O)c2ccnc(NC(=O)c3ccccc3)c2)cc1 , can you help?
135 to 138 °C

More entries:
Looking for the measured melting point of CCCCCCCCCCCCCCCCCNC(=O)OCCSCCOC(=O)NCc1ccccn1 , can you help?
73 to 74 °C

Looking for the measured melting point of CC(=O)Nc1cccc(-c2nc3ncccc3[nH]2)c1 , can you help?
> 250 °C

Looking for the measured melting point of Cc1cc(C)n(-c2cnc(CN)c(Nc3ccc(Cl)cc3)n2)n1 , can you help?
156 to 160 °C

Looking for the measured melting point of CCCCCCCNC(=O)N(C)c1cccc(-c2ccc(CCC(=O)O)cc2)c1 , can you help?
101 °C

Looking for the measured melting point of O=C(CCCC1CCCCC1)C1=C(O)COC1=O , can you help?
38 to 42 °C
